measurement-protocol: in vitro
particulars: rat, liver microsomes
measured-quantity: half-life at 0.25 h, 1 µM (min)
Express the result in min but write the number alone.

compound | half-life at 0.25 h, 1 µM, min
O=[N+]([O-])CC(c1ccccc1)c1c(-c2ccsc2)[nH]c2ccccc12 (configuration not stated) | 4.72

Name the recorded half-life at 0.25 h, 1 µM of the item O=[N+]([O-])CC(c1ccccc1)c1c(-c2cccs2)[nH]c2ccccc12 (configuration not stated) in your answer.
3.88

====

Below, each entry is listed with its recorded solubility kinetic at 2 h, 200 µM.
measurement-protocol: physchem
particulars: PBS buffer, pH 7.4
Express the result in µM but write the number alone.

molecule | result-units | solubility kinetic at 2 h, 200 µM
O=[N+]([O-])CC(c1ccccc1)c1c(-c2cccs2)[nH]c2ccccc12 (configuration not stated) | µM | 1.56

Read the next record carefully.
Name the recorded solubility kinetic at 2 h, 200 µM of the item O=[N+]([O-])CC(c1ccccc1)c1c(-c2ccsc2)[nH]c2ccccc12 (configuration not stated) in your answer.
1.56

====

Below, each entry is listed with its recorded half-life at 0.25 h, 1 µM.
measurement-protocol: in vitro
particulars: human, liver microsomes
Express the result in min but write the number alone.

compound | measured-quantity | result-units | numeric-readout
O=[N+]([O-])CC(c1ccccc1)c1c(-c2cccs2)[nH]c2ccccc12 (configuration not stated) | half-life at 0.25 h, 1 µM | min | 20

Name the recorded half-life at 0.25 h, 1 µM of the item O=[N+]([O-])CC(c1ccccc1)c1c(-c2ccsc2)[nH]c2ccccc12 (configuration not stated) in your answer.
20.8
